Assayed Target: DCN1 (Homo sapiens (Human))
Protocol: Competitive FP binding assay
Stated Conditions: read-out: Binding affinity to DCN1 (IC50 (nM))
Readout Kind: IC50 (nM)

Study these solved cases before continuing.
>>> value_observed("CCC(=O)N[C@@H](Cc1nc2ccc(C(C)C)cc2s1)C(=O)N[C@H](CNC(=O)C1CCN(C2COC2)CC1)C1CCCCC1")
67.3
>>> value_observed("CCC(=O)N[C@@H](Cc1ccc2ccccc2c1)C(=O)N[C@H](C(=O)N[C@@H](CCCCN)C(=O)N[C@@H]1CCOc2ccc(Cl)cc21)C1CCCC1")
394
>>> value_observed("CCC(=O)N[C@@H](Cc1nc2ccc(C(C)C)cc2s1)C(=O)N[C@H](CNC(=O)C1CCN(CCO)CC1)C1CCCCC1")
65.9
>>> value_observed("CCC(=O)N[C@@H](Cc1nc2ccc(C(C)C)cc2s1)C(=O)N[C@H](Cn1cc(CO)nn1)C1CCCCC1")
656

A: CC[C@H](C)[C@@H](CN)NC(=O)[C@H](Cc1nc2ccc(C(C)C)cc2s1)NC(=O)NC
B: CCC(=O)N[C@@H](Cc1ccc2ccccc2c1)C(=O)N[C@H](C(=O)N[C@@H](CCCCN)C(=O)N[C@H]1CCc2ccccc21)[C@@H](C)CC
Prompt: Which is greater in IC50, the first item A or the second item B ? Kindly give the label for the entry you pick.
Response: B
(B: 1930 nM, A: 558 nM)

P: CCC(=O)N[C@H](CNC(=O)Cc1ccccn1)Cc1nc2ccc(Cl)cc2s1
Q: CCC(=O)N[C@@H](Cc1nc2ccc(C(C)C)cc2s1)C(=O)N[C@H](CNC(=O)c1c[nH]cn1)C1CCCCC1
R: CCC(=O)N[C@@H](Cc1nc2cc(F)ccc2s1)C(=O)N[C@H](C(=O)N[C@@H](CCCCN)C(=O)NC(c1ccccc1)c1ccccc1)C1CCCC1
Prompt: Rank by IC50 (largest to smallest). Please write the labels in the order that was asked for.
Response: P, R, Q
(P: 3450 nM, R: 1200 nM, Q: 257 nM)

P: CCC(=O)N[C@@H](Cc1ccc2ccccc2c1)C(=O)N[C@H](C(=O)N[C@@H](CCCCN)C(=O)N[C@@H]1CCOc2cc(Cl)ccc21)C1CCCC1
Q: CCC(=O)N[C@@H](Cc1nc2ccc(Cl)cc2s1)C(=O)N[C@H](C(=O)NCCCCCN(C)C)C1CCCC1
Prompt: Kindly compare P with Q and tell me which has the lower IC50 figure. Kindly give the label for the entry you pick.
Response: P
(P: 122 nM, Q: 575 nM)

P: CCC(=O)N[C@@H](Cc1ccc2ccccc2c1)C(=O)N[C@H](C(=O)N[C@@H](CCCCN)C(=O)N[C@@H]1CCCc2ccccc21)C1CCCC1
Q: CCC(=O)N[C@@H](Cc1nc(C)c(-c2cccc(Cl)c2)s1)C(=O)N[C@H](C(=O)N[C@@H](CCCCN)C(=O)N[C@@H]1CCOc2ccccc21)C1CCOCC1
Prompt: Which is greater in IC50, the first item P or the second item Q ? Kindly give the label for the entry you pick.
Response: P
(P: 402 nM, Q: 139 nM)

---

Assayed Target: UniProt Q96GG9
Protocol: Competitive FP binding assay
Stated Conditions: read-out: Binding affinity to DCN1 (IC50 (nM))
Square brackets hold non-standard residues; d marks the D form. Peptide text beside a SMILES is read from it. * marks the point of attachment. Ala(6-iPr-benzothiazol-2-yl) = CC(C)c1ccc2nc(C[C@H](N)C(=O)O)sc2c1; Cyclopropanecarbonyl = O=C(C1CC1)*
Readout Kind: IC50 (nM)

Study these solved cases before continuing.
>>> value_observed("CCC(=O)N[C@@H](Cc1nc2ccc(C)cc2s1)C(=O)N[C@H](C(=O)N[C@@H](C[C@H]1CC[C@H](CN)CC1)C(=O)N[C@@H]1CCOc2ccccc21)C1CCOCC1")
230
>>> value_observed("CCC(=O)N[C@@H](Cc1nc2ccc(Cl)cc2s1)C(=O)N[C@H](C(=O)N[C@@H](CCCCN(C)C)C(=O)N[C@@H]1CN(C)Cc2ccccc21)C1CCCC1")
163
>>> value_observed("CCC(=O)N[C@@H](Cc1nc2ccc(CC)cc2s1)C(=O)N[C@H](C(=O)N[C@@H](CCCCN)C(=O)N[C@@H]1CCOc2ccccc21)C1CCOCC1")
169
>>> value_observed("CCC(=O)N[C@@H](Cc1ccc2ccccc2c1)C(=O)N[C@H](C(=O)N[C@@H](CCCCN)C(=O)NC(c1ccc(Cl)cc1)c1ccc(Cl)cc1)[C@@H](C)CC")
748
>>> value_observed("CCC(=O)N[C@@H](Cc1nc2ccc(Cl)cc2s1)C(=O)N[C@@H](C[C@H]1CC[C@H](CN)CC1)C(=O)N[C@@H](CCCCN(C)C)C(=O)N[C@@H]1CCOc2ccccc21")
116

P: CCC(=O)N[C@@H](Cc1nc2ccc(C(C)C)cc2s1)C(=O)N[C@H](CN1CCOCC1)C1CCCCC1
Q: CCC(=O)N[C@@H](Cc1nc2ccc(C(C)C)cc2s1)C(=O)N[C@H](CNC(=O)C1CN(C)C1)C1CCCCC1
Prompt: Which is greater in IC50, the first item P or the second item Q ? Kindly give the label for the entry you pick.
Response: P

P: CCC(=O)N[C@@H](Cc1nc2ccc(C)cc2s1)C(=O)N[C@@H](CC1CCNCC1)C(=O)N[C@@H](CCCCN)C(=O)N[C@@H]1CCOc2ccccc21
Q: CCC(=O)N[C@@H](Cc1nc2ccc(Cl)cc2s1)C(=O)N[C@@H](C[C@H]1CC[C@H](CN)CC1)C(=O)N[C@@H](CCCCN)C(=O)N[C@@H]1CCOc2ccccc21
R: CCC(=O)N[C@H](CNC(=O)C1(N)CCOCC1)Cc1nc2ccc(C(C)C)cc2s1
S: CC[C@H](C)[C@H](NC(=O)[C@H](Cc1nc2ccc(C(C)C)cc2s1)NC(=O)C1CC1)C(=O)N[C@@H](CCCCN)C(=O)N[C@@H](CC(C)C)C(N)=O [Example 274] (Cyclopropanecarbonyl-[Ala(6-iPr-benzothiazol-2-yl)]IKL-NH2)
Prompt: In this exercise, place the 4 compounds in ascending sequence of their recorded IC50. Please write the labels in the order that was asked for.
Response: S, Q, P, R
(S: 82.5 nM, Q: 203 nM, P: 596 nM, R: 5060 nM)

1: CCC(=O)N[C@@H](Cc1nc2ccc(C(C)C)cc2s1)C(=O)N[C@H](CO)C1CCCCC1
2: CCC(=O)N[C@H](CNC(=O)C1CCCCC1)Cc1nc2ccc(Cl)cc2s1
3: CCC(=O)N[C@@H](Cc1nc2ccc(C(C)C)cc2s1)C(=O)NC(CSc1nncn1C)C1CCCCC1 (stereo partly shown)
Prompt: Rank by IC50 (largest to smallest). Please write the labels in the order that was asked for.
Response: 2, 3, 1

P: CCC(=O)N[C@@H](Cc1nc2ccc(Cl)cc2s1)C(=O)N[C@H](C(=O)N[C@@H](CCCCN)C(=O)N[C@@H]1CCOc2cc(Cl)ccc21)C1CCCC1
Q: CCC(=O)N[C@@H](Cc1nc2ccc(C(C)C)cc2s1)C(=O)N[C@H](CNC(=O)CCN1CCOCC1)Cc1ccccc1
R: CCC(=O)N[C@H](CNC(=O)C1(N)CCCCC1)Cc1nc2ccc(Cl)cc2s1
S: CCC(=O)N[C@H](CNC(=O)Cc1ccccc1)Cc1nc2ccc(Cl)cc2s1
T: CCC(=O)N[C@@H](Cc1nc(C)c(-c2cccc(Cl)c2)s1)C(=O)N[C@H](CN)C1CCCCC1
Prompt: Rank by IC50 (largest to smallest). Please write the labels in the order that was asked for.
Response: S, T, R, P, Q

---

Assayed Target: DCN1 (Homo sapiens (Human), UniProt Q96GG9)
Sequence (Q96GG9 58-259): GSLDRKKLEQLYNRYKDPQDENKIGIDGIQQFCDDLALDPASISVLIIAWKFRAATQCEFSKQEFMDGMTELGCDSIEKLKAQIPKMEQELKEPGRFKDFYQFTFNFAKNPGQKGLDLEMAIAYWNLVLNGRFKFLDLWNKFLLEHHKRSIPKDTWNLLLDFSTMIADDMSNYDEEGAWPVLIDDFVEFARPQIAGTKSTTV
Protocol: Competitive FP binding assay
Stated Conditions: bounds given in μM; read-out: Binding affinity to DCN1 (IC50)
Square brackets hold non-standard residues; d marks the D form. Peptide text beside a SMILES is read from it. * marks the point of attachment. 2Nal = N[C@@H](Cc1ccc2ccccc2c1)C(=O)O; Propionyl = CCC(=O)*; NHPh = c1ccc(N*)cc1
Listing of entries alongside the reported IC50.

>>> value_observed("CCC(=O)N[C@@H](Cc1ccc2ccccc2c1)C(=O)N[C@H](C(=O)N[C@@H](CN(C)C)C(=O)NC(c1ccc(F)cc1)c1ccc(F)cc1)C1CCCC1 [Example 139]")
"> 10 µM"
>>> value_observed("CCC(=O)N[C@@H](Cc1nc2ccc(Cl)cc2s1)C(=O)N[C@H](C(=O)N[C@@H](CCCCN)C(=O)N[C@@H]1CCOc2ccccc21)C1CCNCC1 [Example 35]")
"> 5 µM"

Prompt: I'd like to know its IC50. The compound in question is CCC(=O)N[C@@H](Cc1ccc2ccccc2c1)C(=O)N[C@H](C(=O)N[C@@H](CCCCN)C(=O)Nc1ccccc1)[C@@H](C)CC [Example 9] (Propionyl-[2Nal]-Ile-Lys-NHPh)
Response: > 10 µM
